This collection of values is drawn from patent US12570651B2.

IC50 reference
Molecular target: PARP-1 (Homo sapiens, UniProt P09874)
Sequence (P09874 whole entry): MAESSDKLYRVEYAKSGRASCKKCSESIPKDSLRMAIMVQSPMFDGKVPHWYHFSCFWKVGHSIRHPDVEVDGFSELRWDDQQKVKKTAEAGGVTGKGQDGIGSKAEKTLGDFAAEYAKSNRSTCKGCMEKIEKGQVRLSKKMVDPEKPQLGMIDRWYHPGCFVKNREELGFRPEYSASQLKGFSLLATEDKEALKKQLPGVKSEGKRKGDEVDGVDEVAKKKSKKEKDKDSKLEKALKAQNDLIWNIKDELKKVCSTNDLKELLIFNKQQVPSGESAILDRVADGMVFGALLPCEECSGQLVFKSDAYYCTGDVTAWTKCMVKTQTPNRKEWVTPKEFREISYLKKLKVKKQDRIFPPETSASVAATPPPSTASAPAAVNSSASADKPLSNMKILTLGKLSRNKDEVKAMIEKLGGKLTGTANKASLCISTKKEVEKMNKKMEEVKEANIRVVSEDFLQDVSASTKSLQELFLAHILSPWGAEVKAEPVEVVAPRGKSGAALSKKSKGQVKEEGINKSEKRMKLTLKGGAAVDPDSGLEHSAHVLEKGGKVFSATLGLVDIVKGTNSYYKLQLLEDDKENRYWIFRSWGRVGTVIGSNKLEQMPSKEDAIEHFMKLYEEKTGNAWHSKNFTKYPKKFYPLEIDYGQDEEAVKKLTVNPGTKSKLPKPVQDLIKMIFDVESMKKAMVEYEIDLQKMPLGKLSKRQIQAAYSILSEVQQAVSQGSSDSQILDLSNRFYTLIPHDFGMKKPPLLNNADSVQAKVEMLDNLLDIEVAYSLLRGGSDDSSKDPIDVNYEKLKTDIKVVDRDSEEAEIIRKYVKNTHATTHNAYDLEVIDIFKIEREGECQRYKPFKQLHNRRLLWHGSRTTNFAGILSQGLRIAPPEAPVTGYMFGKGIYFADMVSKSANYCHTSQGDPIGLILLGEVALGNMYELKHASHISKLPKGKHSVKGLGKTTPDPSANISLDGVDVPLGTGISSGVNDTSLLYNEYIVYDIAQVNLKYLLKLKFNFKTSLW
Experiment: PARP/Apoptosis Universal Colorimetric Assay Kit (ELISA), PARP inhibitory activity
Conditions: Elise test methods April 2020; 0.5 U/well PARP-HSA Enzyme; read-out: IC50-values for different PARP-inhibitors, as calculated by ELISA

Some solved cases for reference:
1) O=C(c1cc(Cn2c(=O)[nH]c(=O)c3ccccc32)ncc1I)N1CCN(C(=O)C2CCCC2)CC1 [Compound 14I] | > 500 nM
2) CC1=CC(C)=[N+]2C1Cc1ccc(CCC(=O)N3CCN(C(=O)c4cc(Cn5c(=O)[nH]c(=O)c6cccnc65)ccc4F)CC3)n1[B-]2(F)F (stereo not shown) [Compound 13F-FL] | 50 to 500 nM
3) O=C(c1cc(Cn2c(=O)[nH]c(=O)c3cccnc32)ccc1I)N1CCN(C(=O)C2CCCC2)CC1 [Compound 13I] | > 500 nM
4) CC1=CC(C)=[N+]2C1Cc1ccc(CCC(=O)N3CCN(C(=O)c4cc(Cn5c(=O)[nH]c(=O)c6cccnc65)ccc4I)CC3)n1[B-]2(F)F (stereo not shown) [Compound 13I-FL] | > 500 nM
5) O=C(c1cc(Cn2c(=O)[nH]c(=O)c3ccccc32)ncc1F)N1CCN(C(=O)C2CCCC2)CC1 [Compound 14F] | < 50 nM

Exercise: Recorded IC50 for CC1=CC(C)=[N+]2C1=Cc1ccc(CCC(=O)N3CCN(C(=O)c4cc(Cn5c(=O)[nH]c(=O)c6ccccc65)ncc4F)CC3)n1[B-]2(F)F [Compound 14F-FL] with PARP-1 (Homo sapiens, UniProt P09874), please?
Key: < 50 nM

Exercise: Recorded IC50 for O=C(c1cc(Cn2c(=O)[nH]c(=O)c3cccnc32)ccc1F)N1CCN(C(=O)C2CCCC2)CC1 [Compound 13F] with PARP-1 (Homo sapiens, UniProt P09874), please?
Key: 50 to 500 nM
